- measurement.target: Bromodomain-containing protein 4 (Homo sapiens, UniProt O60885)
Reported ΔTm values for the following compounds.
property: ΔTm (°C)

[
  {
    "given.smiles": "CCCCS(=O)(=O)Nc1ccc2c(c1)OC(C)(C)C(=O)N2",
    "reported": 4.5
  },
  {
    "given.smiles": "Cc1ccc(S(=O)(=O)Nc2ccc3c(c2)OC(C)(C)C(=O)N3)cc1",
    "reported": 2.9
  },
  {
    "given.smiles": "COc1cc2c(cc1NS(=O)(=O)c1cc(Br)ccc1OC)OC(C)(C)C(=O)N2",
    "reported": 6.6
  },
  {
    "given.smiles": "CC1(C)Oc2cc(NS(=O)(=O)c3cccs3)ccc2NC1=O",
    "reported": 5.1
  },
  {
    "given.smiles": "COc1ccc(Br)cc1S(=O)(=O)Nc1cc2c(cc1N1CCOCC1)NC(=O)C(C)(C)O2",
    "reported": 0
  },
  {
    "given.smiles": "COc1ccc(Br)cc1S(=O)(=O)Nc1cc2c(cc1N1CCCC1)NC(=O)C(C)(C)O2",
    "reported": 1.8
  },
  {
    "given.smiles": "CC1(C)Oc2cc(NS(=O)(=O)C3CCCCC3)ccc2NC1=O",
    "reported": 5.5
  },
  {
    "given.smiles": "CC1(C)Oc2cc(NS(=O)(=O)c3ccc(F)cc3F)ccc2NC1=O",
    "reported": 6.3
  },
  {
    "given.smiles": "COC(=O)c1ccccc1S(=O)(=O)Nc1ccc2c(c1)OC(C)(C)C(=O)N2",
    "reported": 4
  },
  {
    "given.smiles": "CC1(C)Oc2cc(NS(=O)(=O)c3ccc(F)cc3)ccc2NC1=O",
    "reported": 4.5
  }
]
